# assayExplanation: Plasma PK
# Assay type: in vivo, Sprague-Dawley rats
# conditionDescription: Sprague-Dawley; rat plasma, oral gavage, nominal dose 30 mg/kg, mean of n=3, sampling 0.5-4 h
Listed below: AUC values for each entry.
parameter: AUC

{"columns": ["smilesInput", "valueObserved"],
 "data": [
  ["CN1Cc2c(Cl)cc(Cl)cc2[C@H](c2cccc(S(=O)(=O)NCCOCCOCCOCCNC(=O)NCCN(CCNC(=O)NCCOCCOCCOCCNS(=O)(=O)c3cccc([C@@H]4CN(C)Cc5c(Cl)cc(Cl)cc54)c3)CCNC(=O)NCCOCCOCCOCCNS(=O)(=O)c3cccc([C@@H]4CN(C)Cc5c(Cl)cc(Cl)cc54)c3)c2)C1", "< 19 ng·h/mL"],
  ["CN1Cc2c(Cl)cc(Cl)cc2[C@H](c2cccc(S(=O)(=O)NCCOCCOCCNC(=O)CCC(CCC(=O)NCCOCCOCCNS(=O)(=O)c3cccc([C@@H]4CN(C)Cc5c(Cl)cc(Cl)cc54)c3)(CCC(=O)NCCOCCOCCNS(=O)(=O)c3cccc([C@@H]4CN(C)Cc5c(Cl)cc(Cl)cc54)c3)N(C)C)c2)C1", "< 13 ng·h/mL"],
  ["CN1Cc2c(Cl)cc(Cl)cc2[C@H](c2cccc(S(=O)(=O)NCCOCCOCCNC(=O)CCC(CCC(=O)NCCOCCOCCNS(=O)(=O)c3cccc([C@@H]4CN(C)Cc5c(Cl)cc(Cl)cc54)c3)(CCC(=O)NCCOCCOCCNS(=O)(=O)c3cccc([C@@H]4CN(C)Cc5c(Cl)cc(Cl)cc54)c3)NC(=O)NCC(=O)O)c2)C1", "< 8 ng·h/mL"],
  ["CN1Cc2c(Cl)cc(Cl)cc2[C@H](c2cccc(S(=O)(=O)NCCOCCOCCNC(=O)CCC(N)(CCC(=O)NCCOCCOCCNS(=O)(=O)c3cccc([C@@H]4CN(C)Cc5c(Cl)cc(Cl)cc54)c3)CCC(=O)NCCOCCOCCNS(=O)(=O)c3cccc([C@@H]4CN(C)Cc5c(Cl)cc(Cl)cc54)c3)c2)C1", "< 12 ng·h/mL"]
]}
